tested on: N-methyl-D-aspartate receptor (NMDAR), NR1 subunit coagonist site
Readout Type: EC50 (µM)
One number for each entry, in µM.

# query: EC50 of entry NCC(=O)O
118
